target.under.test: T1, human amylin-3(a) receptor (human, UniProt P30988 25-474; O60896 24-148)
T1 sequence (looked up) 1: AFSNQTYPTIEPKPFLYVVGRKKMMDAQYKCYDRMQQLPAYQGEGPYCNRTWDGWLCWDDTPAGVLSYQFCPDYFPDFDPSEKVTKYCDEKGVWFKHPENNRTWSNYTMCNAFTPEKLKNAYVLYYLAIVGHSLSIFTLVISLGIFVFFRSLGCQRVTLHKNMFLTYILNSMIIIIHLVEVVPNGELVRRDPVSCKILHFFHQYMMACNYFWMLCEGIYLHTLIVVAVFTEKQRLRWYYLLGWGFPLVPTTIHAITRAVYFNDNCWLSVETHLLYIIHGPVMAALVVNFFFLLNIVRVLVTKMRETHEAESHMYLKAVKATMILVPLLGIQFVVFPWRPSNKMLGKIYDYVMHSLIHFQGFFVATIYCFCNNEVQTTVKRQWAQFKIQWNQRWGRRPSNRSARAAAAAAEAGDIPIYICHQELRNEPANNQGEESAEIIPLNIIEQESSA
T1 sequence (looked up) 2: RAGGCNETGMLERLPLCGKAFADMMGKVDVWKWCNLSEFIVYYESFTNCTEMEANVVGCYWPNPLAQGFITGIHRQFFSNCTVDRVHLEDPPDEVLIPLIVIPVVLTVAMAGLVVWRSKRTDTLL
procedure.details: cell-based or functional assay
Numbered stars: 1 amine (or outer) side, 2 acyl side, 3 side chain; on linkers, the order of the positions; unused ones are H or OH. Square brackets hold non-standard residues; d marks the D form. Side chains are listed from the residue outwards. * marks the point of attachment. C18 diacid = O=C(O)CCCCCCCCCCCCCCCCC(=O)*; γGlu = O=C(O)[C@H](CCC(=O)[*:2])N[*:1]; AEEA = NCCOCCOCC(=O)O; Aib = CC(C)(N)C(=O)O
parameter.measured: hAMYR3 Potency, 1% HSA, EC50 [pM]
Answers without a unit are incomplete; give the number and then its unit.

GET /values?readout=hAMYR3 Potency, 1% HSA, EC50 [pM]&item= Compound 89 (peptide) peptide: H[Aib]HGTFTSDYSILLEEQAAREFIEWLLAGGPSSGEASHLSTAALGRLSAELHRLK([AEEA-AEEA-γGlu-C18 diacid])TLPRTETGSGSP-NH2
39.7 pM

Requested field: hAMYR3 Potency, 1% HSA, EC50 [pM]. Item: Compound 70 (peptide) peptide: H[Aib]HGTFTSDYSILLEEQAAREFIEWLLAGGPSRGAPPPSGGGEASELSTAALGRLSAELHK([AEEA-AEEA-γGlu-C18 diacid])LATLPRTETGSGSP-NH2
59.4 pM
